Data provenance is the kinase profiling compilation of Christmann-Franck et al. (2016).

# residual activity values compiled below
- Target Entity: UniProt:Q15375
- Sequence (Q15375 whole entry, looked up): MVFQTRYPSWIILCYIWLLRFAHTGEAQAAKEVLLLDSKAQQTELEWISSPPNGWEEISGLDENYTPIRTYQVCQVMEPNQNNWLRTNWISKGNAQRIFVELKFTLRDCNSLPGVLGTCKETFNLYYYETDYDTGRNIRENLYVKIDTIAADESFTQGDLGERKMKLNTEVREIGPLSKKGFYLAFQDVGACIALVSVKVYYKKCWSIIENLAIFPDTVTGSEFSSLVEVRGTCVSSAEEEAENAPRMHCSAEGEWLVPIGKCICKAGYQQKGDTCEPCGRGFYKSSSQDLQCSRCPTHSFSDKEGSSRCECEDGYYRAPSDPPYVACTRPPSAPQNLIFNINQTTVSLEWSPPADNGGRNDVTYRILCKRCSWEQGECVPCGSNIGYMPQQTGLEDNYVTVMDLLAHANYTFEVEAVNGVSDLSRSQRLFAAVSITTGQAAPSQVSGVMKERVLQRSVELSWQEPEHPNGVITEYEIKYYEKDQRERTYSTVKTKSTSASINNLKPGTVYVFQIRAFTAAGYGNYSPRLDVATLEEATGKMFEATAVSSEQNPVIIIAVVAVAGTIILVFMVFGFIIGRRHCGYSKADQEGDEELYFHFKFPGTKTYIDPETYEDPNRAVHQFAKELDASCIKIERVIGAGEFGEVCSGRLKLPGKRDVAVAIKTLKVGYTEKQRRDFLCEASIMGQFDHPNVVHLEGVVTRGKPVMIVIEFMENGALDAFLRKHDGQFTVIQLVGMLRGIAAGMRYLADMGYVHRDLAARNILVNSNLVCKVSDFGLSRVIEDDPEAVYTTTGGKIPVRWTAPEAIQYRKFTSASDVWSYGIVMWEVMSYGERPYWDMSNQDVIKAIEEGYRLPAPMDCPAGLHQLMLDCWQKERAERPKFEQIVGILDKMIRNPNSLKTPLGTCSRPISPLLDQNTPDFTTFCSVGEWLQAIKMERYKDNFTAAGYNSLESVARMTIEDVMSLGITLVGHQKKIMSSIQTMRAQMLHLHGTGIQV
- Run Description: radiometric filter-binding kinase assay, Kinase HotSpot
- Setup Conditions: compound 0.5 µM; ATP 10 µM
Just the number please, in %, no unit attached.

Check out these entries, answers already filled in.
{"Molecule": "O=C1Nc2ccccc2/C1=C\\c1c(Cl)[nH]c2ccccc12", "Observed Measurement": 95.3}
{"Molecule": "O=C1Nc2cc(Br)ccc2/C1=C1/Nc2ccccc2/C1=N\\O", "Observed Measurement": 81.4}
{"Molecule": "O=C(Nc1ccc(Cl)cc1)c1ccccc1NCc1ccncc1", "Observed Measurement": 95}
{"Molecule": "CC(C)n1cnc2c(Nc3cccc(Cl)c3)nc(NCCO)nc21", "Observed Measurement": 87.1}
{"Molecule": "COc1cc2ncnc(Nc3ccc(F)c(Cl)c3)c2cc1OCCCN1CCOCC1", "Observed Measurement": 74.3}

Sample C#Cc1cccc(Nc2ncnc3cc(OCCOC)c(OCCOC)cc23)c1 , system: UniProt:Q15375. Its residual activity is 69.8

* * *

- Target Entity: UniProt Q14012
- Sequence (Q14012 whole entry, looked up): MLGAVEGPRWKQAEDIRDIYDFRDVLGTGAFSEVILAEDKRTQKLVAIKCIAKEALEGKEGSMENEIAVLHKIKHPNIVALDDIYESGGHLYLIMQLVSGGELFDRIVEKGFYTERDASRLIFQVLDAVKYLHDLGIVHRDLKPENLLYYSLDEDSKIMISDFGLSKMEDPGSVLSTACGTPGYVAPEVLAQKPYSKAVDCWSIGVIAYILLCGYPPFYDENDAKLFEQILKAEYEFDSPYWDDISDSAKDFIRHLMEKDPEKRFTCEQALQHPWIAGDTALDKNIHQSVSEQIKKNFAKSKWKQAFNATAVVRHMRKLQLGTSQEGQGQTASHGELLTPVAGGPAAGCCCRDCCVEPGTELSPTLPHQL
- Run Description: radiometric filter-binding kinase assay, Kinase HotSpot
- Setup Conditions: compound 0.5 µM; ATP 10 µM
Measured Quantity: residual activity (%)
Report the value in % with no unit label.

{"Compound": "O=c1cc(N2CCNCC2)oc2c(-c3ccccc3)cccc12", "Measured Quantity": "residual activity", "Observed Measurement": 99.2}
{"Compound": "Cc1ccc(NC(=O)c2ccc(CN3CCN(C)CC3)cc2)cc1Nc1nc(-c2cccnc2)cs1", "Measured Quantity": "residual activity", "Observed Measurement": 102}
{"Compound": "Nc1n[nH]c2nnc(-c3c(-c4ccccc4)nn4ccccc34)cc12", "Measured Quantity": "residual activity", "Observed Measurement": 102}

// field: residual activity; key: COc1ccc(-c2cnc3c(-c4ccsc4)cnn3c2)cc1 ; value = 104

# residual activity of CC(C)n1cnc2c(Nc3cccc(Cl)c3)nc(NCCO)nc21 = 71.2

Entry CSc1nc(-c2ccc(F)cc2)c(-c2ccnc(NC(C)c3ccccc3)c2)[nH]1 (stereo not given) ; residual activity = 96.2

The reported value for O=C(Nc1ccc(Cl)cc1)c1ccccc1NCc1ccncc1 in terms of residual activity is 103

Input Clc1ccc(Nc2nnc(Cc3ccncc3)c3ccccc23)cc1 . Output residual activity: 100

Reported residual activity for COc1cc2nccc(Oc3ccc(NC(=S)NC(=O)c4ccccc4C)cc3)c2cc1OC was 101

Note to self: residual activity recorded for O=C1Cc2c([nH]c3ccc([N+](=O)[O-])cc23)-c2ccccc2N1 was 94.8

* * *

- Target Entity: DYRK1B (human) (UniProt Q9Y463)
- Sequence (Q9Y463 whole entry, looked up): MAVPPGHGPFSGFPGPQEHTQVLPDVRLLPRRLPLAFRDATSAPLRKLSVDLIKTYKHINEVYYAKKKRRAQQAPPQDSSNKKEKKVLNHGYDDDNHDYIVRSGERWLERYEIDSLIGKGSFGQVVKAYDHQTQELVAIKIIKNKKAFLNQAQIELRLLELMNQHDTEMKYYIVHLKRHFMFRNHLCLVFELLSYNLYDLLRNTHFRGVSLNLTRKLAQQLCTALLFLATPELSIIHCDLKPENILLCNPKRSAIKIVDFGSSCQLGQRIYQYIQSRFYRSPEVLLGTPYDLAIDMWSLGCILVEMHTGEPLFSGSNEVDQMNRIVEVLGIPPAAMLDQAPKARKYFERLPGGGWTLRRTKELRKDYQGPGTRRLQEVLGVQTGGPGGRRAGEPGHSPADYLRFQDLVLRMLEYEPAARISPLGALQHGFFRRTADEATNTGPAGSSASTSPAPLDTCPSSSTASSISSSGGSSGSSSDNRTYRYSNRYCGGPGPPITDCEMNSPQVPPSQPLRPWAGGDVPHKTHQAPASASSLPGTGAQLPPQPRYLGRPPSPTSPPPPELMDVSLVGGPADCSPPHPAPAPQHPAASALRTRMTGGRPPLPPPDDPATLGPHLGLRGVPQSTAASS
- Run Description: radiometric filter-binding kinase assay, Kinase HotSpot
- Setup Conditions: compound 0.5 µM; ATP 10 µM
In this section, each of the compounds is paired with its reported residual activity.
Output spec: scalar in %, unitless text.

Reported residual activity ( O=C1Nc2ccc3ncsc3c2/C1=C/c1c[nH]cn1 ) = 11.3

The reported value for Clc1ccc(Nc2nnc(Cc3ccncc3)c3ccccc23)cc1 in terms of residual activity is 109

For NC(=O)c1ccc(N(C(N)=O)c2c(F)cccc2F)nc1-c1ccc(F)cc1F the compound record lists residual activity as 97.1

Field residual activity (entry Cc1ccc(NC(=O)c2ccc(CN3CCN(C)CC3)cc2)cc1Nc1nc(-c2cccnc2)cs1 ) reads 95.7

Query Cc1cc(Nc2cc(N3CCN(C)CC3)nc(Sc3ccc(NC(=O)C4CC4)cc3)n2)[nH]n1 yields residual activity of 98.8

residual activity for O=C1Nc2cc(Br)ccc2/C1=C1/Nc2ccccc2/C1=N\O is 80.3

residual activity in this record for COc1cc2ncnc(Nc3ccc(F)c(Cl)c3)c2cc1OCCCN1CCOCC1 : 91.9

Briefly, residual activity measured for COc1cc2nccc(Oc3ccc(NC(=S)NC(=O)c4ccccc4C)cc3)c2cc1OC : 110

Query NC(=O)c1ccc(-c2nc(-c3ccccn3)c(-c3ccc4c(c3)OCCO4)[nH]2)cc1 yields residual activity of 100

Short answer for CC(C)[C@H](CO)Nc1nc(Nc2cccc(Cl)c2)c2ncn(C(C)C)c2n1 : residual activity was 49.9
